Target: human PAH with the R408W mutation (Homo sapiens, UniProt P00439, R408W)
Construct: expressed in transfected cells
Experiment: Cell Based Phenylalanine Flux Assay
Settings: A375 cells expressing human R408W PAH; 24 hrs compound incubation; 13C-Tyrosine by LC-MS; average where tested multiple times; read-out: AC50
AC50 for assorted molecules

>>> print(df.to_string())
                                   molecule     reported
0  Cc1cc(C(=O)N2CCc3[nH]cnc3[C@@H]2c2cc3c(C)cccn3n2)n(C)n1 [Example 901]       > 5 µM
1  C[C@H](O)c1nc(C(F)F)c(C(=O)N2CCc3[nH]cnc3[C@H]2c2cc3cccc(C(F)(F)F)n3n2)o1 [Example 1200]  0.5 to 1 µM
2  N#Cc1ncoc1C(=O)N1CCc2[nH]cnc2[C@H]1c1cc2ccc(Br)cn2n1 [Example 682]  0.5 to 1 µM

Prompt: What measured AC50 goes with O=C(c1nnc(-c2ccn(C(F)(F)F)n2)o1)N1CCc2[nH]cnc2[C@@H]1c1cc2c(C(F)(F)F)cccn2n1 [Example 1513] ?
Completion: 1 to 5 µM

Prompt: // returns reported AC50 for input O=C(c1nnc(-c2cnn(C(F)F)c2)o1)N1CCc2[nH]cnc2[C@@H]1c1cc2c(Cl)cccn2n1 [Example 1135]
Completion: 1 to 5 µM

Prompt: For the molecule O=C(c1ccnn1C(F)F)N1CCc2[nH]cnc2[C@H]1c1cc2ccc(C(F)(F)F)cn2n1 [Example 1138] , what AC50 is on record?
Completion: < 0.5 µM

Prompt: Endpoint output: AC50 of O=C(c1nnc(-c2ccn(C(F)(F)F)n2)o1)N1CCc2[nH]cnc2[C@H]1c1cc2cccc(C(F)F)n2n1 [Example 1544] . Value?
Completion: < 0.5 µM

Prompt: Which measured AC50 value corresponds to CC(C)(O)c1nc(C(F)F)c(C(=O)N2CCc3[nH]cnc3[C@H]2c2cc3c(F)cccn3n2)o1 [Example 714] ?
Completion: < 0.5 µM

Prompt: Look at this molecule and give its reported AC50. O=C(c1nnc(-c2ccn(C(F)F)n2)o1)N1CCc2[nH]cnc2[C@@H]1c1cc2c(F)cccn2n1 [Example 824]
Completion: > 5 µM

###

Biological target: human PAH with the R408W mutation (Homo sapiens, UniProt P00439, R408W)
Construct: expressed in transfected cells
Assay: Cell Based Phenylalanine Flux Assay
Conditions: A375 cells expressing human R408W PAH; 24 hrs compound incubation; 13C-Tyrosine by LC-MS; average where tested multiple times; read-out: AC50
propertyMeasured: AC50

Consider the worked cases shown below.
>>> print(df.to_string())
                                   compound     reported
0  COCCc1ccc2c(C(=O)N3CCc4[nH]cnc4[C@H]3c3cc4c(F)cccn4n3)cnn2c1 [Example 1796]  0.5 to 1 µM
1  O=C(c1nnc(C2CCC2)o1)N1CCc2[nH]cnc2[C@H]1c1cc2c(F)cccn2n1 [Example 1559]     < 0.5 µM
2  CC(C)(C)c1nnc(C(=O)N2CCc3[nH]cnc3[C@H]2c2cc3c(C(F)F)cccn3n2)o1 [Example 1409]     < 0.5 µM
3  Cc1cccc2cc([C@H]3c4nc[nH]c4CCN3C(=O)c3oc(C(C)(C)O)nc3C(F)F)nn12 [Example 795]    1 to 5 µM
4  O=C(c1cnn2ccccc12)N1CCc2[nH]cnc2[C@@H]1c1cc2c(F)cccn2n1 [Example 1288]  0.5 to 1 µM
5  Cc1cnn(C)c1-c1nnc(C(=O)N2CCc3[nH]cnc3[C@@H]2c2cc3c(C(F)F)cccn3n2)o1 [Example 1569]       > 5 µM
6  COc1ccc2c(C(=O)N3CCc4[nH]cnc4[C@H]3c3cc4c(C(F)F)cccn4n3)cnn2c1 [Example 1676]  0.5 to 1 µM
7  Cc1cccc2cc([C@@H]3c4nc[nH]c4CCN3C(=O)c3ocnc3C(F)F)nn12 [Example 792]     < 0.5 µM
8  COc1ccc(-c2nnc(C(=O)N3CCc4[nH]cnc4[C@H]3c3cc4cccc(Cl)n4n3)o2)nc1 [Example 1097]  0.5 to 1 µM
9  Cc1cccc2cc([C@H]3c4nc[nH]c4CCN3C(=O)c3nnc(-c4cnccn4)o3)nn12 [Example 1338]       > 5 µM

Prompt: Give its AC50 value. Item: O=C(c1nnc(-c2ccccn2)o1)N1CCc2[nH]cnc2[C@@H]1c1cc2cccc(F)n2n1 [Example 974]
Completion: 1 to 5 µM

Prompt: Dear colleague, I am looking for the recorded AC50 of the following compound: O=C(c1nnc(-c2ncccc2F)o1)N1CCc2[nH]cnc2[C@H]1c1cc2c(OC(F)F)cccn2n1 [Example 1657]
Completion: 0.5 to 1 µM

###

Reported AC50 values for the following compounds.
Biological target: human PAH with the R408W mutation (Homo sapiens, UniProt P00439, R408W)
Construct: expressed in transfected cells
Test: Cell Based Phenylalanine Flux Assay
Conditions: A375 cells expressing human R408W PAH; 24 hrs compound incubation; 13C-Tyrosine by LC-MS; average where tested multiple times; read-out: AC50

The following compounds have reported results that may help.
>>> df
                          structurenotation         reported
0  Cn1nc(C(F)F)cc1C(=O)N1CCc2[nH]cnc2[C@H]1c1cc2cccc(Cl)n2n1         < 500 nM
1  O=C(c1nnc(-c2cccnc2)o1)N1CCc2[nH]cnc2[C@@H]1c1cc2cccc(Cl)n2n1  1000 to 5000 nM
2  Cn1nccc1-c1nnc(C(=O)N2CCc3[nH]cnc3[C@@H]2c2cc3cccc(C(F)F)n3n2)o1        > 5000 nM
3  Cn1nccc1C(=O)N1CCc2[nH]cnc2[C@H]1c1cc2ccccn2n1   500 to 1000 nM
4  O=C(c1nnc(C2CC2)o1)N1CCc2[nH]cnc2[C@H]1c1cc2cccc(C(F)(F)F)n2n1   500 to 1000 nM
5  COc1cccn2nc([C@H]3c4nc[nH]c4CCN3C(=O)c3cnn4cc(C5CC5)ccc34)cc12        > 5000 nM

Prompt: Given the entry Cn1nc(C(F)(F)F)nc1C(=O)N1CCc2[nH]cnc2[C@@H]1c1cc2c(Cl)cccn2n1 , report its measured AC50.
Completion: 1000 to 5000 nM

Prompt: What value of AC50 has been recorded for this entry: O=C(c1cn(-c2ccccn2)nc1Cl)N1CCc2[nH]cnc2[C@H]1c1cc2ccccn2n1
Completion: 1000 to 5000 nM

Prompt: Which AC50 value belongs to CN(C)c1ccc2c(C(=O)N3CCc4[nH]cnc4[C@H]3c3cc4c(Cl)cccn4n3)cnn2c1 ?
Completion: < 500 nM

Prompt: Sample Cc1cccc2cc([C@H]3c4nc[nH]c4CCN3C(=O)c3nnc(C(C)C)o3)nn12 — what was its AC50?
Completion: 1000 to 5000 nM

Prompt: Using the record for Cc1nc(C(C)(C)F)oc1C(=O)N1CCc2[nH]cnc2[C@@H]1c1cc2c(F)cccn2n1 , report its AC50.
Completion: < 500 nM

Prompt: # AC50 lookup, item Cc1cccc2cc([C@@H]3c4nc[nH]c4CCN3C(=O)c3nnc(-c4cccnc4)o3)nn12
Completion: < 500 nM

Prompt: What AC50 value was documented for this compound, Cn1cc(-c2nnc(C(=O)N3CCc4[nH]cnc4[C@@H]3c3cc4c(Cl)cccn4n3)o2)cn1 ?
Completion: > 5000 nM

Prompt: Quick one: AC50 for O=C(c1ocnc1C(F)F)N1CCc2[nH]cnc2[C@@H]1c1cc2cccc(Cl)n2n1 ?
Completion: 1000 to 5000 nM

Prompt: Fill in the blank: the reported AC50 of Cc1ccc2c(C(=O)N3CCc4[nH]cnc4[C@@H]3c3cc4cccc(F)n4n3)cnn2c1 is ____.
Completion: 1000 to 5000 nM

Prompt: Looking for the measured AC50 of O=C(c1nnc(-c2cnccn2)o1)N1CCc2[nH]cnc2[C@H]1c1cc2cccc(F)n2n1 , can you help?
Completion: 500 to 1000 nM

###

Biological target: human PAH with the R408W mutation (Homo sapiens, UniProt P00439, R408W)
Construct: expressed in transfected cells
Sequence (P00439 1-452 R408W): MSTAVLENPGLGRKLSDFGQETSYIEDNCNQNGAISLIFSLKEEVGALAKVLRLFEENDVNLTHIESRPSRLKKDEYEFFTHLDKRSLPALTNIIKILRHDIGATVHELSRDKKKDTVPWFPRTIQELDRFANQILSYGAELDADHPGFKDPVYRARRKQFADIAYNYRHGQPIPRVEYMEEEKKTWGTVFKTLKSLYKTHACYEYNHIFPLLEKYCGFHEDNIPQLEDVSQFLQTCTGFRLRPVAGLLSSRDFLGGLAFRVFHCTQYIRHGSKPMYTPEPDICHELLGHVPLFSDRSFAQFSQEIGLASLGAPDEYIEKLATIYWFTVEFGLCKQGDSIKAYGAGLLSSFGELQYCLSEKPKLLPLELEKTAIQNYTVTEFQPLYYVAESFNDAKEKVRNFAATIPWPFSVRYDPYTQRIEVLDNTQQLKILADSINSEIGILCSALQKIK
Experiment: Cell Based Phenylalanine Flux Assay;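 note: after compound treatment, cells received sepiapterin plus isotope-labelled Phenylalanine for 4 hours, then labelled Tyrosine in the medium was quantified, 10-point 2-fold dilution series run in duplicate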
Details: A375 cells expressing human PAH R408W; 24 hrs compound incubation; 13C-Tyrosine by LC-MS; average where tested multiple times; read-out: AC50
propertyMeasured: AC50

Below, each entry is followed by its recorded AC50 result.
>>> print(df.to_string())
                                   molecule  propertymeasured         reported
0  Fc1cccc(N2CCc3[nH]cnc3[C@@H]2c2cc3ccccn3n2)n1 [Example 2134]              AC50  1000 to 5000 nM
1  CC(O)c1nc(Cl)c(C(=O)N2CCc3[nH]cnc3[C@H]2c2cc3ccccn3n2)o1 (single isomer, unassigned) [Example 2376]              AC50  1000 to 5000 nM
2  c1ccc(N2CCc3[nH]cnc3[C@H]2c2cc3ccccn3n2)nc1 [Example 1814]              AC50         < 500 nM
3  Cc1cccnc1-c1nnc(N2CCc3[nH]cnc3[C@@H]2c2cc3c(C(C)C)cccn3n2)o1 [Example 2284]              AC50        > 5000 nM
4  O=C(C1CCC1)N1CCc2[nH]cnc2[C@H]1c1cc2c(F)cccn2n1 [Example 2080]              AC50         < 500 nM
5  CC(C)c1nnc(N2CCc3[nH]cnc3[C@H]2c2cc3c(Cl)cccn3n2)o1 [Example 2325]              AC50         < 500 nM
6  FC(F)c1cccn2nc([C@@H]3c4nc[nH]c4CCN3c3ccc(C(F)(F)F)cn3)cc12 [Example 1916]              AC50         < 500 nM

Prompt: Value lookup for AC50; key = Cc1cccnc1-c1nnc(N2CCc3[nH]cnc3[C@@H]2c2cc3c(Cl)cccn3n2)o1 [Example 2286]
Completion: > 5000 nM
